biological target: DNA gyrase (Escherichia coli) (UniProt P0AES6+P0AES4); experiment: In vitro inhibition of supercoiling activity of Escherichia coli DNA gyrase as the ratio of IC50 of Novobiocin and IC50 of compound; format: protein-complex assay
Entries and their Ratio values follow.

{"columns": ["COMPOUND", "Ratio"],
 "data": [
  ["CO[C@@H]1[C@@H](OC(=O)c2ccc(C)[nH]2)[C@@H](O)[C@H](Oc2ccc3c(OCCn4ccnc4)cc(=O)oc3c2C)OC1(C)C", 0.22],
  ["CO[C@@H]1[C@@H](OC(=O)c2ccc(C)[nH]2)[C@@H](O)[C@H](Oc2ccc3c(Cn4cncn4)cc(=O)oc3c2C)OC1(C)C", 0.4],
  ["CO[C@@H]1[C@@H](OC(=O)c2ccc(C)[nH]2)[C@@H](O)[C@H](Oc2ccc3c(OCCN(C)C)c(Cl)c(=O)oc3c2C)OC1(C)C", 0.33],
  ["CO[C@@H]1[C@@H](OC(=O)c2ccc(C)[nH]2)[C@@H](O)[C@H](Oc2ccc3c(CN4CCNC(c5ccccc5)C4)cc(=O)oc3c2C)OC1(C)C (stereo partly specified)", 0.28],
  ["CCN1CCN(Cc2cc(=O)oc3c(C)c(O[C@@H]4OC(C)(C)[C@H](OC)[C@@H](OC(=O)c5ccc(C)[nH]5)[C@H]4O)ccc23)CC1", 1],
  ["CO[C@@H]1[C@@H](OC(=O)c2ccc(C)[nH]2)[C@@H](O)[C@H](Oc2ccc3c(CN4CCNC(c5ccco5)C4)cc(=O)oc3c2C)OC1(C)C (stereo partly specified)", 0.33]
]}
